target: Protein smoothened (Homo sapiens); test: Inhibition of Smo receptor (unknown origin) expressed in NIH3T3 cells assessed as inhibition of Smo agonist SAG-induced GRE activation after 30 hrs by luciferase reporter gene assay
pIC50: −log10 of the molar value.
Assay Metric: pIC50

Guide cases for pIC50, answers given:
Cc1cnc(-c2cc(N3CCn4cc(C(=O)N5CCCC5)nc4C3)ncc2Cl)c(C)c1 :: 6.57
Cc1cnc(-c2cc(N3CCn4cc(C(=O)Nc5ccc(F)cc5)nc4C3)ncc2Cl)c(C)c1 :: 6.36
CCNC(=O)c1cn2c(n1)CN(c1cc(-c3ncc(C)cc3C)c(Cl)cn1)CC2 :: 5.89

1. COCC(=O)Nc1cn2c(n1)CN(c1cc(-c3ncc(C)cc3C)c(Cl)cn1)CC2
2. Cc1cnc(-c2cc(N3CCn4cc(C(=O)N(C)CCO)nc4C3)ncc2Cl)c(C)c1
Exam item: Parameter check: reported pIC50 is higher for which label, 1 or 2 ? To answer, give the label that identifies your chosen option.
Marked response: 1

P. Cc1cnc(-c2cc(N3CCn4cc(C(=O)N5CCOCC5)nc4C3)ncc2Cl)c(C)c1
Q. Cc1cnc(-c2cc(N3CCn4cc(C(=O)Nc5ccccc5F)nc4C3)ncc2Cl)c(C)c1
Exam item: Lab note: check whether P or Q has the lower measured pIC50. To answer, give the label that identifies your chosen option.
Marked response: P

I. Cc1cnc(-c2cc(N3CCn4cc(C(=O)N5CCC(O)CC5)nc4C3)ncc2Cl)c(C)c1
II. Cc1cnc(-c2cc(N3CCn4cc(C(=O)NCC5CC5)nc4C3)ncc2Cl)c(C)c1
Exam item: Parameter check: reported pIC50 is higher for which label, I or II ? To answer, give the label that identifies your chosen option.
Marked response: II

====

molecular target: Protein smoothened (Homo sapiens, UniProt Q99835); test: Inhibition of Smo receptor (unknown origin) expressed in NIH3T3 cells assessed as inhibition of Smo agonist SAG-induced GRE activation after 30 hrs by luciferase reporter gene assay
Sequence (Q99835 whole entry): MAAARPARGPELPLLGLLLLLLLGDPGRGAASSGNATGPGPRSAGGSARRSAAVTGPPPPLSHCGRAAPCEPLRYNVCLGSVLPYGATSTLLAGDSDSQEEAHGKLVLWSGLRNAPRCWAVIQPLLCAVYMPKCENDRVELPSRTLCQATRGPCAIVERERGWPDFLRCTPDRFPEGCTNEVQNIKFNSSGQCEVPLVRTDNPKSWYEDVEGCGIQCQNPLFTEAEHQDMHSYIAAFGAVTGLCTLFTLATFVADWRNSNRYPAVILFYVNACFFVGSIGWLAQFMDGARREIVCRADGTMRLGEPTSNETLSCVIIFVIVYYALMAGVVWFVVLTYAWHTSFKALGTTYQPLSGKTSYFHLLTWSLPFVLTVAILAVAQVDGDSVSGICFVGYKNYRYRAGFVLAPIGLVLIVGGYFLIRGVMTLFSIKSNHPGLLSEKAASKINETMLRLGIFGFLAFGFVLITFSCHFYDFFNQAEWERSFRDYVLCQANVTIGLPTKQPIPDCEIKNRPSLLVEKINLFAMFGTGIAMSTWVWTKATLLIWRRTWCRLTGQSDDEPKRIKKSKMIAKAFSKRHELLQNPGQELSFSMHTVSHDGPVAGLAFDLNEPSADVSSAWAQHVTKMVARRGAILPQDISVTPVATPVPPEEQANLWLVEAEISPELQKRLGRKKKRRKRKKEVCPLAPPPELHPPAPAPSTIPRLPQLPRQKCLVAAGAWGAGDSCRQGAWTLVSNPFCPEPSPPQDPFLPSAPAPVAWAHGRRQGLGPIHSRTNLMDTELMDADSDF
Assay Metric: IC50 (µM)

Guide cases for IC50, answers given:
Cc1cnc(-c2cc(N3CCn4cc(C(=O)Nc5ccccc5)nc4C3)ncc2Cl)c(C)c1 :: 0.3
Cc1cnc(-c2cc(N3CCn4cc(C(=O)Nc5ccccn5)nc4C3)ncc2Cl)c(C)c1 :: 0.27
CCOC(=O)c1cn2c(n1)CN(c1cc(-c3ncc(C)cc3C)c(Cl)cn1)CC2 :: 0.69
Cc1cnc(-c2cc(N3CCn4cc(C(=O)Oc5ccccc5)nc4C3)ncc2Cl)c(C)c1 :: 0.96
Cc1cnc(-c2cc(N3CCn4cc(C(=O)Nc5ccc(F)c(F)c5)nc4C3)ncc2Cl)c(C)c1 :: 0.42

A. Cc1cnc(-c2cc(N3CCn4cc(C(=O)N5CC(C)NC(C)C5)nc4C3)ncc2Cl)c(C)c1 (stereo not given)
B. Cc1cnc(-c2cc(N3CCn4cc(CO)nc4C3)ncc2Cl)c(C)c1
Exam item: Lab note: check whether A or B has the lower measured IC50. To answer, give the label that identifies your chosen option.
Marked response: A

a. COC[C@H]1CCCN1C(=O)c1cn2c(n1)CN(c1cc(-c3ncc(C)cc3C)c(Cl)cn1)CC2
b. Cc1cnc(-c2cc(N3CCn4cc(C(=O)OCC5CC5)nc4C3)ncc2Cl)c(C)c1
Exam item: Lab note: check whether a or b has the lower measured IC50. To answer, give the label that identifies your chosen option.
Marked response: b
(b: 0.27 µM, a: 0.55 µM)

a. Cc1cnc(-c2cc(N3CCn4cc(C(=O)Nc5cccc(F)c5)nc4C3)ncc2Cl)c(C)c1
b. Cc1cnc(-c2cc(N3CCn4cc(C(=O)OC5CCCC5)nc4C3)ncc2Cl)c(C)c1
c. Cc1cnc(-c2cc(N3CCn4cc(C(=O)OC(C)C)nc4C3)ncc2Cl)c(C)c1
d. CNC(=O)c1cn2c(n1)CN(c1cc(-c3ncc(C)cc3C)c(Cl)cn1)CC2
Exam item: Returns the items ordered by IC50, from maximum to minimum. Answer by listing the labels in the requested order.
Marked response: d, b, c, a
(d: 2.7 µM, b: 0.74 µM, c: 0.38 µM, a: 0.087 µM)
